- Assay Procedure: NCI Yeast Anticancer Drug Screen. Data for the sgs1 mgt1 strain (AID 161)
- Experimental Context: S. cerevisiae sgs1 mgt1 strain, at 50.0 µM (retest, dose inferred, filed as 5.0)
Compounds without any hit were thinned out: in the full panel of roughly 79,000, 15% have a hit. Activity calls are given as the source filed them. Cut-off read from the data, not from the text of the source: active = growth inhibition above about 70%; inactive = the rest.
Outcome field: choose from y = active, n = inactive

## Task Please share the test call associated with CNC(=O)N(C)/N=C/c1ccc([N+](=O)[O-])o1 .
## Result y

## Task Please share the test call associated with C(=C/c1ccccc1)/C=N/Nc1ccccc1 .
## Result n

## Task Please share the test call associated with N#CC1C(=O)NC(=O)CC1c1ccccc1 (stereo not given) .
## Result y

## Task Please share the test call associated with COc1cc(C2c3cc4c(cc3OC(NNc3ccccc3)C2C)OCO4)cc(OC)c1O (stereo not given) .
## Result y

## Task Please share the test call associated with CCOC(=O)C(=O)CC(=O)C(Br)C(Br)c1ccc(Cl)cc1 (stereo not given) .
## Result y

## Task Please share the test call associated with O=C(CC(O)(CC(=O)OCc1ccccc1)C(=O)OCc1ccccc1)OCc1ccccc1 .
## Result n

## Task Please share the test call associated with COc1cc(N=Nc2ccccc2)cc(/C=N/NC(N)=S)c1O .
## Result y

## Task Please share the test call associated with COc1ccc(-c2nc(N)n(C)c2SSc2c(-c3ccc(OC)cc3)nc(N)n2C)cc1 .
## Result n

## Task Please share the test call associated with Cc1ccccc1SCc1nc2ccccc2c(C)[n+]1[O-] .
## Result n

## Task Please share the test call associated with CCC(C)(C)c1ccc(OC(=O)C(C)OC(C)=O)cc1 (stereo not given) .
## Result n

## Task Please share the test call associated with CCS(=O)(=O)/C=C\S(=O)(=O)CC .
## Result n

## Task Please share the test call associated with CN(C)CCC[Si]1(C)c2ccccc2CCc2ccccc21 .
## Result n

## Task Please share the test call associated with CC[C@@H](C(=O)[C@@H](C)[C@@H](O)[C@H](C)CCc1ccc(C)c(O)c1C(=O)O)[C@H]1O[C@](CC)([C@H]2CC[C@](O)(CC)[C@H](C)O2)C[C@@H]1C .
## Result y

## Task Please share the test call associated with C=C1C(=O)OC2CC(C)C3C=CC(=O)C3CC12 (stereo not given) .
## Result n

## Task Please share the test call associated with Cc1ccc2c(c1)CSCCO2 .
## Result y

These entries and their values trace back to PubChem BioAssay (NCI).
